Recorded IC50 values for a group of compounds are listed next.
Target: JAK3 (Homo sapiens)
Construct: recombinant purified GST-tagged catalytic domain for each enzyme
Sequence (P52333 822-1111 limits assumed): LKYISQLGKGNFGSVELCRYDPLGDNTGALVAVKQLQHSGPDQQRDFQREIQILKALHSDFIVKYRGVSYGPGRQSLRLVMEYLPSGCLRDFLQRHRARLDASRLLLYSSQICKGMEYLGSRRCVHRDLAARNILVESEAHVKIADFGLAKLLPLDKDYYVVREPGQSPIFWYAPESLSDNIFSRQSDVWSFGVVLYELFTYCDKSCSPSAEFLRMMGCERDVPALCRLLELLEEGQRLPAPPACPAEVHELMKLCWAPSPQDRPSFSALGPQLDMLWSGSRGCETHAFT
Assay: Jak Biochemical HTRF Assay (JAK3)
Details: recombinant purified GST-tagged catalytic domain, [ATP] 2.9 μM, values given as range classes

Please review the entries below; each comes with its answer.
>  <compound>
CC(C)[C@H](Nc1cncc(-c2c[nH]c3ncc(NS(C)(=O)=O)cc23)c1)C(=O)NCC(F)(F)F

>  <IC50>
10 to 500 nM

$$$$
>  <compound>
CC(C)[C@H](Nc1cncc(-c2c[nH]c3ncc(OCCc4ccccc4)cc23)c1)C(=O)NCC(F)(F)F

>  <IC50>
≤ 10 nM

$$$$
>  <compound>
C[C@@H](Nc1cnnc(-c2c[nH]c3ncc(C#N)cc23)n1)C(=O)NCC(F)(F)F

>  <IC50>
≤ 10 nM

$$$$

Reported IC50 for CC(C)[C@H](Nc1cncc(-c2c[nH]c3ncc(CNC(=O)C4CC4)cc23)c1)C(=O)NCC(F)(F)F was ≤ 10 nM

Record summary for N#Cc1cnc2[nH]cc(-c3nncc(N[C@@H]4CCCC[C@@H]4C(=O)NCC(F)(F)F)n3)c2c1 : reported IC50 = 10 to 500 nM

Entry CC(C)[C@@H](Nc1cncc(-c2c[nH]c3ncc(COC4CCN(C(=O)OC(C)(C)C)CC4)cc23)c1)C(=O)NCC(F)(F)F ; IC50 = ≤ 10 nM

Per the record, COc1cnc2[nH]cc(-c3cncc(N[C@H](C(=O)NCC(F)(F)F)C(C)C)c3)c2c1 has IC50 of ≤ 10 nM

----------
Molecular target: JAK2 (Homo sapiens)
Construct: recombinant purified GST-tagged catalytic domain for each enzyme; purchased Invitrogen M4290
Sequence (O60674 849-1124 limits assumed): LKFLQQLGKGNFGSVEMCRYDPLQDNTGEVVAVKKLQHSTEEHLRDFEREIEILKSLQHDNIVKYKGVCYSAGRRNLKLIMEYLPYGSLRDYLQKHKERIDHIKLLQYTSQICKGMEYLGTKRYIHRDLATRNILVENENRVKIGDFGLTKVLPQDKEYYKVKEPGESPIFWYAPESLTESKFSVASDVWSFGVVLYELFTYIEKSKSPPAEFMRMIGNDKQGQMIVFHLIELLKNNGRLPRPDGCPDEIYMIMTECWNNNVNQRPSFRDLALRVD
Assay: Jak Biochemical HTRF Assay (JAK2)
Conditions: recombinant purified GST-tagged catalytic domain, [ATP] 8.5 μM, values given as range classes
pIC50: −log10 of the molar value.
The entries below are paired with their reported pIC50.

>  <input.smiles>
CC(C)(Nc1cncc(-c2c[nH]c3ncc(C(N)=O)cc23)c1)C(=O)NCC(F)(F)F

>  <system.tested>
JAK2 (Homo sapiens)

>  <result>
6.30 to 8.00

$$$$
>  <input.smiles>
CC(C)[C@@H](Nc1cncc(-c2c[nH]c3ncc(C(=O)NC4CCOCC4)cc23)c1)C(=O)NCC(F)(F)F

>  <system.tested>
JAK2 (Homo sapiens)

>  <result>
≥ 8.00

$$$$
>  <input.smiles>
CC(C)[C@@H](Nc1cncc(-c2c[nH]c3ncc(C(=O)N4CCC(O)CC4)cc23)c1)C(=O)NCC(F)(F)F

>  <system.tested>
JAK2 (Homo sapiens)

>  <result>
< 6.30

$$$$

# evaluate next
response.value for CC(C)[C@@H](Nc1cncc(-c2c[nH]c3ncc(C(=O)NCc4cnn(C)c4)cc23)c1)C(=O)NCC(F)(F)F (field: pIC50) = ≥ 8.00

----------
Recorded IC50 for the following compounds
Molecular target: JAK3 (Homo sapiens)
Construct: recombinant purified GST-tagged catalytic domain for each enzyme
Test: Jak Biochemical HTRF Assay (JAK3)
Conditions: recombinant purified GST-tagged catalytic domain, [ATP] 2.9 μM, values given as range classes

Past entries and their recorded results:
>  <compound>
COCCOc1cnc2[nH]cc(-c3cncc(NC(C(=O)NCC(F)(F)F)C(C)C)c3)c2c1 (centres unmarked)

>  <IC50>
≤ 0.01 µM

$$$$
>  <compound>
COc1cnc2[nH]cc(-c3nncc(N[C@@H](C(=O)NCC(F)(F)F)C(C)C)n3)c2c1

>  <IC50>
≤ 0.01 µM

$$$$
>  <compound>
CC1c2ncc(C(F)(F)F)n2CCN1c1cnnc(-c2c[nH]c3ncc(C(N)=O)cc23)n1 (centres unmarked)

>  <IC50>
≤ 0.01 µM

$$$$
>  <compound>
CCOC(=O)Nc1cnc2[nH]cc(-c3cncc(NC(C(=O)NCC(F)(F)F)C(C)C)c3)c2c1 (centres unmarked)

>  <IC50>
0.01 to 0.5 µM

$$$$
>  <compound>
C[C@@H](Nc1cncc(-c2c[nH]c3ncc(C(N)=O)cc23)c1)C(=O)NCC(F)(F)F

>  <IC50>
≤ 0.01 µM

$$$$

Switching to the query record.
IC50 reported for this compound CCCC(=O)NCc1cnc2[nH]cc(-c3cncc(N[C@H](C(=O)NCC(F)(F)F)C(C)C)c3)c2c1 : 0.01 to 0.5 µM
